Target: Human TRPA1 (Homo sapiens)
Sequence (O75762 whole entry): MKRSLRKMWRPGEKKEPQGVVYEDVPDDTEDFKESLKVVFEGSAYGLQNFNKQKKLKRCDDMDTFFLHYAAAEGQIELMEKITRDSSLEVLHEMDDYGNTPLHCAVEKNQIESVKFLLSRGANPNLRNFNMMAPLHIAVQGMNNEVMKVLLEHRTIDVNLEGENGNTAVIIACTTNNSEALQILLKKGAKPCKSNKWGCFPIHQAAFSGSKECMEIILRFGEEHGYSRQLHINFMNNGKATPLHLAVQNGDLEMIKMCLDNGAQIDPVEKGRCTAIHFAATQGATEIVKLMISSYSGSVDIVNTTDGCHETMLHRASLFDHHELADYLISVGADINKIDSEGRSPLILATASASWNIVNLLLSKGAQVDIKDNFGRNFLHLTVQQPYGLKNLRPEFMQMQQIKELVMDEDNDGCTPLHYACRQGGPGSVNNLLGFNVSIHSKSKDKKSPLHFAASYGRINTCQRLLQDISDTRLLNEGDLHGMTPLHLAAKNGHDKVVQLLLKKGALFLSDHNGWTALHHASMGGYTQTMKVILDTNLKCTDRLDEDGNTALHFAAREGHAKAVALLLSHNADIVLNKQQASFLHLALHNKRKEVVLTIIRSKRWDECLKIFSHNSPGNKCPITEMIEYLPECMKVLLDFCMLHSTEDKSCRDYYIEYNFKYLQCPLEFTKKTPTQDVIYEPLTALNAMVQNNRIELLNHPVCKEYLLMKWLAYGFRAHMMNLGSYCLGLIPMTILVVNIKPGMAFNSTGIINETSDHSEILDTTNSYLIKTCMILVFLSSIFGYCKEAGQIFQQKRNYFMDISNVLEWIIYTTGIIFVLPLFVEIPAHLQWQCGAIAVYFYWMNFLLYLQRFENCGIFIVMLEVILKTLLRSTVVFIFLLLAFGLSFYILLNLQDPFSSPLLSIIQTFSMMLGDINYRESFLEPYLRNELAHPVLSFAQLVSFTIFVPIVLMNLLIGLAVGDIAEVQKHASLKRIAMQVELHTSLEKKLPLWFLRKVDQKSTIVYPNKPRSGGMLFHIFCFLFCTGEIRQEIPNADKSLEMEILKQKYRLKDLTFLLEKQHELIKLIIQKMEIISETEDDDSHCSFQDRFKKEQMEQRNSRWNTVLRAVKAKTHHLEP
Assay: Alternative TRPA1 Ca2+ fluorometry assay (hTRPA1/TREx-HEK293 cells, Fluo-4, FDSS 6000)
Assay type: cell-based
Design: expressed in transfected cells
Details: Fluo-4-AM, agonist 6,11-dihydro-5H-dibenzo[b,e]azepine-10-carboxylic acid methyl ester 25 nM, procedure used for Examples 184, 190 to 192, 194 to 316
Here the recorded IC50 is given for each entry.

// worked examples, IC50 included
| compound | study system | result |
| --- | --- | --- |
| O=C(NCc1cc(-c2ccc(C(F)(F)F)cc2)nc(NCc2cccnc2)n1)[C@@H]1CCCN1S(=O)(=O)c1ccc(F)cc1 [Example 294] | Human TRPA1 (Homo sapiens) | ~1 µM |
| COc1cccc(S(=O)(=O)N2CCC[C@H]2C(=O)NCc2cc(-c3ccc(C(F)(F)F)cc3)nc(N3CCN(c4ccccc4F)CC3)n2)c1 [Example 253] | Human TRPA1 (Homo sapiens) | > 10 µM |
| COc1ccc(CCNc2nc(CNC(=O)[C@@H]3CCCN3S(=O)(=O)c3ccc(F)cc3)cc(-c3ccc(C(F)(F)F)cc3)n2)cc1OC [Example 197] | Human TRPA1 (Homo sapiens) | ~1.15 µM |
| O=C(NCc1cc(-c2ccc(Br)cc2)nc(N[C@@H](CO)Cc2ccccc2)n1)[C@@H]1CCCN1S(=O)(=O)c1ccc(F)cc1 [Example 210] | Human TRPA1 (Homo sapiens) | 4.57 µM |
| CN1CCN(c2nc(CNC(=O)[C@@H]3CCCN3S(=O)(=O)c3ccc(F)cc3)cc(-c3ccc(Br)cc3)n2)CC1 [Example 220] | Human TRPA1 (Homo sapiens) | ~4.47 µM |

Item: O=C(NCc1cc(-c2ccc(Cl)c(Cl)c2)nc(N2CCN(c3ccccc3F)CC2)n1)[C@@H]1CCCN1S(=O)(=O)c1ccc(F)cc1 [Example 248] Test system: Human TRPA1 (Homo sapiens) Read-out: IC50 Value: ?
~0.676 µM

Item: O=C(NCc1cc(-c2ccc3c(c2)OCO3)nc(NCCc2ccc(Cl)cc2Cl)n1)[C@@H]1CCCN1S(=O)(=O)c1ccc(F)cc1 [Example 292] Test system: Human TRPA1 (Homo sapiens) Read-out: IC50 Value: ?
> 10 µM

Item: Cc1c(Cl)cccc1S(=O)(=O)N1CCC[C@H]1C(=O)NCc1cc(-c2ccc(C(F)(F)F)cc2)nc(N2CCN(c3ccccc3F)CC2)n1 [Example 262] Test system: Human TRPA1 (Homo sapiens) Read-out: IC50 Value: ?
> 10 µM

###

Here the recorded IC50 is given for each entry.
Target: Human TRPA1 (Homo sapiens)
Experiment: Alternative TRPA1 Ca2+ fluorometry assay (hTRPA1/TREx-HEK293 cells, Fluo-4, FDSS 6000)
Format: cell-based
Parameters: expressed in transfected cells
Conditions: Fluo-4-AM, agonist 6,11-dihydro-5H-dibenzo[b,e]azepine-10-carboxylic acid methyl ester 25 nM, procedure used for Examples 184, 190 to 192, 194 to 316

| molecule | study system | result |
| --- | --- | --- |
| O=C(NCc1cc(-c2ccc(C(F)(F)F)cc2)nc(N2CCN(c3ccccc3F)CC2)n1)[C@@H]1CCCN1S(=O)(=O)c1ccc(F)cc1Cl | Human TRPA1 (Homo sapiens) | > 10000 nM |
| O=C(NCc1cc(-c2ccc(Br)cc2)nc(NC2CCCC2)n1)[C@@H]1CCCN1S(=O)(=O)c1ccc(F)cc1 | Human TRPA1 (Homo sapiens) | ~1620 nM |
| O=C(NCc1cc(-c2ccc(C(F)(F)F)cc2)nc(NCCC2C=Nc3ccccc32)n1)[C@@H]1CCCN1S(=O)(=O)c1ccc(F)cc1 (stereo partly shown) | Human TRPA1 (Homo sapiens) | ~1590 nM |
| Cc1cc(C)cc(-c2cc(CNC(=O)[C@@H]3CCCN3S(=O)(=O)c3ccc(F)cc3)nc(N3CCN(c4ccccc4F)CC3)n2)c1 | Human TRPA1 (Homo sapiens) | > 10000 nM |
| NS(=O)(=O)c1ccc(CCNc2nc(CNC(=O)[C@@H]3CCCN3S(=O)(=O)c3ccc(F)cc3)cc(-c3ccc(C(F)(F)F)cc3)n2)cc1 | Human TRPA1 (Homo sapiens) | ~3310 nM |

What value of IC50 has been reported for the following molecule? CC(Nc1nc(CNC(=O)[C@@H]2CCCN2S(=O)(=O)c2ccc(F)cc2)cc(-c2ccc3c(c2)OCO3)n1)c1ccccc1 (stereo partly shown)
~1510 nM

What value of IC50 has been reported for the following molecule? Cc1cccc(Cl)c1S(=O)(=O)N1CCC[C@H]1C(=O)NCc1cc(-c2ccc(C(F)(F)F)cc2)nc(N2CCN(c3ccccc3F)CC2)n1
> 10000 nM
